System: SK-MES-1
Experiment: relative viability (nuclei count vs DMSO), 5 days (fraction); higher = more cells survive
Conditions: first compound 0.1265 µM
metric: relative viability
Returns: the value as a bare number; no unit string appended.

Solved cases below.
[[record]]
compound = "O=C(O)c1ccc(-c2c[nH]c3ncc(-c4ccccc4)cc23)cc1C1CCCC1 + CS(=O)(=O)N1CCN(Cc2cc3nc(-c4cccc5[nH]ncc45)nc(N4CCOCC4)c3s2)CC1 [Pictilisib] (partner 1 µM)"
metric = "relative viability"
result_number = 0.399

[[record]]
compound = "O=C(O)c1ccc(-c2c[nH]c3ncc(-c4ccccc4)cc23)cc1C1CCCC1 + N=C(N)NC(=N)NCCc1ccccc1 [Phenformin] (partner 250 µM)"
metric = "relative viability"
result_number = 0.687


Now turn to the next compound.
Name the recorded relative viability for O=C(O)c1ccc(-c2c[nH]c3ncc(-c4ccccc4)cc23)cc1C1CCCC1 + Cc1nc(NC(=O)N2CCC[C@H]2C(N)=O)sc1-c1ccnc(C(C)(C)C(F)(F)F)c1 [Alpelisib] (partner 2 µM) . 1.01

---

System: SK-LU-1
Assay: relative viability (nuclei count vs DMSO), 5 days (fraction); higher = more cells survive
Settings: first compound 0.08 µM
metric: relative viability
When you answer, write just the number.

[[record]]
molecule = "C=C1C(=O)O[C@@H](CCCCCCCC)[C@@H]1C(=O)O [C-75] + Nc1ncn([C@H]2C[C@H](O)[C@@H](CO)O2)c(=O)n1 [Decitabine] (partner 2 µM)"
result_number = 0.64

[[record]]
molecule = "C=C1C(=O)O[C@@H](CCCCCCCC)[C@@H]1C(=O)O [C-75] + CS(=O)(=O)CCNCc1ccc(-c2ccc3ncnc(Nc4ccc(OCc5cccc(F)c5)c(Cl)c4)c3c2)o1 [Lapatinib] (partner 2 µM)"
result_number = 0.795

[[record]]
molecule = "C=C1C(=O)O[C@@H](CCCCCCCC)[C@@H]1C(=O)O [C-75] + O=C(CCCCCCC(=O)Nc1ccccc1)NO [Vorinostat] (partner 1 µM)"
result_number = 0.782


Consider now this further molecule.
Look up relative viability: C=C1C(=O)O[C@@H](CCCCCCCC)[C@@H]1C(=O)O [C-75] + Cc1cc(Nc2cc(N3CCN(C)CC3)nc(Sc3ccc(NC(=O)C4CC4)cc3)n2)n[nH]1 [Tozasertib] (partner 0.1 µM) 0.349

---

System: NCI-H727
Test: relative viability (nuclei count vs DMSO), 5 days (fraction); higher = more cells survive
Conditions: first compound 0.4 µM
Let's look at some compounds and their measured relative viability.
Reply: number alone, nothing else.

Answered cases to consult:
[[record]]
compound = "O=C(O)c1ccc(-c2c[nH]c3ncc(-c4ccccc4)cc23)cc1C1CCCC1 + CS(=O)(=O)N1CCN(Cc2cc3nc(-c4cccc5[nH]ncc45)nc(N4CCOCC4)c3s2)CC1 [Pictilisib] (partner 1 µM)"
test_target = "NCI-H727"
result_number = 0.654

[[record]]
compound = "O=C(O)c1ccc(-c2c[nH]c3ncc(-c4ccccc4)cc23)cc1C1CCCC1 + CC(=O)Nc1cccc(-n2c(=O)n(C3CC3)c(=O)c3c(Nc4ccc(I)cc4F)n(C)c(=O)c(C)c32)c1 [Trametinib] (partner 0.02 µM)"
test_target = "NCI-H727"
result_number = 0.379


Here is the next item to consider.
// query relative viability value for entry O=C(O)c1ccc(-c2c[nH]c3ncc(-c4ccccc4)cc23)cc1C1CCCC1 + CC(=O)c1c(C)c2cnc(Nc3ccc(N4CCNCC4)cn3)nc2n(C2CCCC2)c1=O [Palbociclib] (partner 0.5 µM) 0.652
